Every entry's value here was drawn from ChEMBL document CHEMBL1961873.

biological target: Vascular endothelial growth factor receptor 2 (Homo sapiens) (UniProt P35968); details: at 1 µM;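 also: each value is the mean percent inhibition of KDR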
Sequence (P35968 whole entry): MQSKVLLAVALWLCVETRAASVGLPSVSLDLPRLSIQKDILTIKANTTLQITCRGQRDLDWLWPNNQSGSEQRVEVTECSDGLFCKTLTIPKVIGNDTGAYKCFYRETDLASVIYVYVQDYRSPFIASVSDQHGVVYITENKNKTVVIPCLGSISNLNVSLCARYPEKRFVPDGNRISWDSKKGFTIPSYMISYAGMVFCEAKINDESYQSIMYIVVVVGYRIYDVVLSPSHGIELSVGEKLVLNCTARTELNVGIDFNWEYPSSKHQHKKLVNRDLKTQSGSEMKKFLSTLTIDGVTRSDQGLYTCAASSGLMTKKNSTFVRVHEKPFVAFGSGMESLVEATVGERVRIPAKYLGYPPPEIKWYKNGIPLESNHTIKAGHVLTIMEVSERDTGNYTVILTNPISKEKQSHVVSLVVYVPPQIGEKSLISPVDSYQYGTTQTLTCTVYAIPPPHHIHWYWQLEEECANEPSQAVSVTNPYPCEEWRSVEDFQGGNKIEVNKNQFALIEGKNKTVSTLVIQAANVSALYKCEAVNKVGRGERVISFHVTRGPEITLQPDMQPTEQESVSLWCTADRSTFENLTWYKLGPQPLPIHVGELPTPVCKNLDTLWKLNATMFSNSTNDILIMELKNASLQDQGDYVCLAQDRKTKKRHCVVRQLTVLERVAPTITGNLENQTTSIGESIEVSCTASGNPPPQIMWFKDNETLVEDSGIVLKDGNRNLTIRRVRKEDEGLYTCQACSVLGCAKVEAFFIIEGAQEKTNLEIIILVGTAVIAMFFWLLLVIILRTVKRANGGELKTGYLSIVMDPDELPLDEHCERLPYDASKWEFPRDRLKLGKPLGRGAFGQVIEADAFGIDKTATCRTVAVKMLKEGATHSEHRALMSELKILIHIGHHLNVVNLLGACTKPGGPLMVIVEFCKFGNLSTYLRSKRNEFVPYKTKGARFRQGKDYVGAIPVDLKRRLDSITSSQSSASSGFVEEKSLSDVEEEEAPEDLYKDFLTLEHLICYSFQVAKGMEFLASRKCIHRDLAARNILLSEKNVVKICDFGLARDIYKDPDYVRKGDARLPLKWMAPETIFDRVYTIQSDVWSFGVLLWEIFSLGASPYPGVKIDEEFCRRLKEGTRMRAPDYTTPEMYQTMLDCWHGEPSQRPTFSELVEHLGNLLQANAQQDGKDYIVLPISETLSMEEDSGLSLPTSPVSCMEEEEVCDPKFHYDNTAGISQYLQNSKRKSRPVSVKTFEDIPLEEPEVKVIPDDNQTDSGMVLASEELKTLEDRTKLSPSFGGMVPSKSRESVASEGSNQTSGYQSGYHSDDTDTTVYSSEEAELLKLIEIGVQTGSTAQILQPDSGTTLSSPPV
Returns one of satisfied or not satisfied; satisfied when inhibition is >= 8%.

| smiles-notation | classification |
| --- | --- |
| COc1cc2c(cc1Nc1nc(Nc3ccsc3C(N)=O)c3cc[nH]c3n1)N(C(=O)CN(C)C)CCC2 | not satisfied |
| NS(=O)(=O)c1ccc(N/C=C2\C(=O)Nc3ccc4ncsc4c32)cc1 | satisfied |
| Fc1ccc(-c2ncn(C3CCNCC3)c2-c2ccnc(Oc3ccccc3)n2)cc1 | not satisfied |
| CCn1c(-c2nonc2N)nc2c(C#CC(C)(C)O)nc(O[C@@H](CN)c3ccccc3)cc21 | satisfied |

Is reported inhibition greater than or equal to 8% here: COc1cc(C=NNc2ncnc3c2cnn3Cc2ccccc2)ccc1O
satisfied

Is reported inhibition greater than or equal to 8% here: COc1cccc(-n2ncc3c(N/N=C/c4ccncc4)ncnc32)c1
satisfied

Is reported inhibition greater than or equal to 8% here: NC(=O)c1sc(-n2cnc3cc(C(F)(F)F)ccc32)cc1OCc1ccccc1Br
not satisfied

Is reported inhibition greater than or equal to 8% here: NS(=O)(=O)c1ccc(-c2ccc3c(NC(=O)C4CC4)n[nH]c3c2)cc1
satisfied

====

Task for the reader: assign each of the following molecules its reported inhibition.
target: Serine/threonine-protein kinase SIK2 (Homo sapiens) (UniProt Q9H0K1); details: at 0.1 µM
Sequence (Q9H0K1 whole entry, looked up): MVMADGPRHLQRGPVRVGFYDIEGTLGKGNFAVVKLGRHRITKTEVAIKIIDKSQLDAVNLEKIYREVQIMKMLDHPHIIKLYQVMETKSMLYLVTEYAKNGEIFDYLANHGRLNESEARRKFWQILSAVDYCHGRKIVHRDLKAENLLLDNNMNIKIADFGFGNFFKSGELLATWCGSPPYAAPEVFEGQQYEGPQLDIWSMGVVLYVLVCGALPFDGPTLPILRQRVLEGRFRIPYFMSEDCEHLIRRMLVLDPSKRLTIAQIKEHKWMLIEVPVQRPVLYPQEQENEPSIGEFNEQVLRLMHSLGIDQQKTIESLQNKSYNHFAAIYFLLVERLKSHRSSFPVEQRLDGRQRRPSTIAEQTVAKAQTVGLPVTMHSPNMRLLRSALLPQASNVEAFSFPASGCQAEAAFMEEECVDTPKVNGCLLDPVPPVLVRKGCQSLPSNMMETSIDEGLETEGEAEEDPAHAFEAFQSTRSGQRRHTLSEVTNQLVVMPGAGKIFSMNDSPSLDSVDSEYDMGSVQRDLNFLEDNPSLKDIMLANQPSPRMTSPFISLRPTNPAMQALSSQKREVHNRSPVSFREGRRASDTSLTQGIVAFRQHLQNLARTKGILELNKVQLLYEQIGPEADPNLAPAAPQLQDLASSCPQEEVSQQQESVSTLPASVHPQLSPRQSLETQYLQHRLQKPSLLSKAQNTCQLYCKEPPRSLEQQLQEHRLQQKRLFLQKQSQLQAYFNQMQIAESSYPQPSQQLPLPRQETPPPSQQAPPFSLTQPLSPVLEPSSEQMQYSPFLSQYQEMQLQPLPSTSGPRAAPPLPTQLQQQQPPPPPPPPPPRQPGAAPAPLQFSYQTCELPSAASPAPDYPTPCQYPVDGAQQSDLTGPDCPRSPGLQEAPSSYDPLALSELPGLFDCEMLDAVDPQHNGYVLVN
Description: GSK_PKIS: SNF1LK2 (QIK) mean inhibition at 0.1 uM [Nanosyn]
Numbers only, in %.

Check out these entries, answers already filled in.
| smiles-notation | assay-system | observed-measurement |
| --- | --- | --- |
| CCn1c(-c2nonc2N)nc2c(C#CC(C)(C)O)ncc(OC[C@@H]3CCCN3)c21 | Serine/threonine-protein kinase SIK2 (Homo sapiens) (UniProt Q9H0K1) | -4.09 |
| Nc1nonc1-c1nc2cnccc2n1C1CCCCC1 | Serine/threonine-protein kinase SIK2 (Homo sapiens) (UniProt Q9H0K1) | -6.25 |
| COc1cccc(COc2cc(-n3cnc4ccccc43)sc2C(N)=O)c1 | Serine/threonine-protein kinase SIK2 (Homo sapiens) (UniProt Q9H0K1) | -0.88 |
| CCn1c(-c2nonc2N)nc2c(C#CC(C)(C)O)ncc(OCC3CCNCC3)c21 | Serine/threonine-protein kinase SIK2 (Homo sapiens) (UniProt Q9H0K1) | 3.58 |
| Fc1ccc(-c2ncn(C3CCNCC3)c2-c2ccnc(Oc3ccccc3)n2)cc1 | Serine/threonine-protein kinase SIK2 (Homo sapiens) (UniProt Q9H0K1) | -0.18 |
| CCn1c(-c2nonc2N)nc2c(C#CCN)ncc(OCCCN)c21 | Serine/threonine-protein kinase SIK2 (Homo sapiens) (UniProt Q9H0K1) | -2.87 |
| NS(=O)(=O)c1ccc(N/C=C2\C(=O)Nc3ccc4ncsc4c32)cc1 | Serine/threonine-protein kinase SIK2 (Homo sapiens) (UniProt Q9H0K1) | 9 |
| COc1cc(C=NNc2ncnc3c2cnn3Cc2ccccc2)ccc1O | Serine/threonine-protein kinase SIK2 (Homo sapiens) (UniProt Q9H0K1) | -6 |
| NS(=O)(=O)c1ccc(-c2ccc3c(NC(=O)C4CC4)n[nH]c3c2)cc1 | Serine/threonine-protein kinase SIK2 (Homo sapiens) (UniProt Q9H0K1) | 1.79 |

Let us examine a further case.
Could you share which inhibition value was measured for COc1cccc(-n2ncc3c(N/N=C/c4ccncc4)ncnc32)c1 ?
15.4
